# system tested: reverse-transcriptase of mouse Sarcoma virus (Moloney murine leukemia virus, UniProt P03355)
# procedure text: Effect for inhibiting reverse-transcriptase of mouse Sarcoma virus
# Format: biochemical
# measurement context: read-out: Percent inhibition (%)
Measured inhibition at 300 µg/mL accompanies every entry in the list below.
I only need the number, in %, no unit after it.

- CC1=CC=CC(C)C2OC(=O)C(C(O)C2C)C(O)C(C)C(O)C(C)(O)C=C(C)C(=O)c2c(OCC(=O)c3ccccc3)c(C)c(O)c3c2C(=O)C(C)=C(NC1=O)C3=O (stereo not drawn): 50
- CC1=CC=CC(C)C2OC(=O)C(C(O)C2C)C(O)C(C)C(O)C(C)(O)C=C(C)C(=O)c2c(OC3CCCCC3)c(C)c(O)c3c2C(=O)C(C)=C(NC1=O)C3=O (stereo not drawn): 45
- C=CCOc1c(C)c(O)c2c3c1C(=O)C(C)=CC(C)(O)C(O)C(C)C(O)C1C(=O)OC(C(C)C=CC=C(C)C(=O)NC(=C(C)C3=O)C2=O)C(C)C1O (stereo not drawn): 65

Lookup: Recorded inhibition at 300 µg/mL of CCCCCCCCCCCOc1c(C)c(O)c2c3c1C(=O)C(C)=CC(C)(O)C(O)C(C)C(O)C1C(=O)OC(C(C)C=CC=C(C)C(=O)NC(=C(C)C3=O)C2=O)C(C)C1O (stereo not drawn) , please.
Found: 78

Lookup: Query: inhibition at 300 µg/mL; subject: CC(=O)COc1c(C)c(O)c2c3c1C(=O)C(C)=CC(C)(O)C(O)C(C)C(O)C1C(=O)OC(C(C)C=CC=C(C)C(=O)NC(=C(C)C3=O)C2=O)C(C)C1O (stereo not drawn)
Found: 58

Lookup: Please give the measured inhibition at 300 µg/mL for this molecule: CCCCCCCCOc1c(C)c(O)c2c3c1C(=O)C(C)=CC(C)(O)C(O)C(C)C(O)C1C(=O)OC(C(C)C=CC=C(C)C(=O)NC(=C(C)C3=O)C2=O)C(C)C1O (stereo not drawn)
Found: 41

----------
# system tested: reverse-transcriptase of mouse Sarcoma virus (Moloney murine leukemia virus)
# procedure text: Effect for inhibiting reverse-transcriptase of mouse Sarcoma virus
# Format: biochemical
# measurement context: read-out: Percent inhibition (%)
The reader will find reported inhibition at 300 µg/mL values listed item by item below.
Respond numerically; units are % and should not be typed.

- CCCCCCOc1c(C)c(O)c2c3c1C(=O)C(C)=CC(C)(O)C(O)C(C)C(O)C1C(=O)OC(C(C)C=CC=C(C)C(=O)NC(=C(C)C3=O)C2=O)C(C)C1O (centres unmarked): 60
- CCCCOc1c(C)c(O)c2c3c1C(=O)C(C)=CC(C)(O)C(O)C(C)C(O)C1C(=O)OC(C(C)C=CC=C(C)C(=O)NC(=C(C)C3=O)C2=O)C(C)C1O (centres unmarked): 78
- CCCCCOc1c(C)c(O)c2c3c1C(=O)C(C)=CC(C)(O)C(O)C(C)C(O)C1C(=O)OC(C(C)C=CC=C(C)C(=O)NC(=C(C)C3=O)C2=O)C(C)C1O (centres unmarked): 52
- CCOc1c(C)c(O)c2c3c1C(=O)C(C)=CC(C)(O)C(O)C(C)C(O)C1C(=O)OC(C(C)C=CC=C(C)C(=O)NC(=C(C)C3=O)C2=O)C(C)C1O (centres unmarked): 60

Lookup: Give the measured inhibition at 300 µg/mL of CCCOc1c(C)c(O)c2c3c1C(=O)C(C)=CC(C)(O)C(O)C(C)C(O)C1C(=O)OC(C(C)C=CC=C(C)C(=O)NC(=C(C)C3=O)C2=O)C(C)C1O (centres unmarked) .
Found: 52
